Molecular target: CFTR ΔF508 mutant (Homo sapiens, UniProt P13569, DEL508-508)
Construct: expressed in transfected cells; host or cells: CFBE41o- (adenoviral transduction)
Sequence (P13569 with tags, fused parts or gaps DEL508-508): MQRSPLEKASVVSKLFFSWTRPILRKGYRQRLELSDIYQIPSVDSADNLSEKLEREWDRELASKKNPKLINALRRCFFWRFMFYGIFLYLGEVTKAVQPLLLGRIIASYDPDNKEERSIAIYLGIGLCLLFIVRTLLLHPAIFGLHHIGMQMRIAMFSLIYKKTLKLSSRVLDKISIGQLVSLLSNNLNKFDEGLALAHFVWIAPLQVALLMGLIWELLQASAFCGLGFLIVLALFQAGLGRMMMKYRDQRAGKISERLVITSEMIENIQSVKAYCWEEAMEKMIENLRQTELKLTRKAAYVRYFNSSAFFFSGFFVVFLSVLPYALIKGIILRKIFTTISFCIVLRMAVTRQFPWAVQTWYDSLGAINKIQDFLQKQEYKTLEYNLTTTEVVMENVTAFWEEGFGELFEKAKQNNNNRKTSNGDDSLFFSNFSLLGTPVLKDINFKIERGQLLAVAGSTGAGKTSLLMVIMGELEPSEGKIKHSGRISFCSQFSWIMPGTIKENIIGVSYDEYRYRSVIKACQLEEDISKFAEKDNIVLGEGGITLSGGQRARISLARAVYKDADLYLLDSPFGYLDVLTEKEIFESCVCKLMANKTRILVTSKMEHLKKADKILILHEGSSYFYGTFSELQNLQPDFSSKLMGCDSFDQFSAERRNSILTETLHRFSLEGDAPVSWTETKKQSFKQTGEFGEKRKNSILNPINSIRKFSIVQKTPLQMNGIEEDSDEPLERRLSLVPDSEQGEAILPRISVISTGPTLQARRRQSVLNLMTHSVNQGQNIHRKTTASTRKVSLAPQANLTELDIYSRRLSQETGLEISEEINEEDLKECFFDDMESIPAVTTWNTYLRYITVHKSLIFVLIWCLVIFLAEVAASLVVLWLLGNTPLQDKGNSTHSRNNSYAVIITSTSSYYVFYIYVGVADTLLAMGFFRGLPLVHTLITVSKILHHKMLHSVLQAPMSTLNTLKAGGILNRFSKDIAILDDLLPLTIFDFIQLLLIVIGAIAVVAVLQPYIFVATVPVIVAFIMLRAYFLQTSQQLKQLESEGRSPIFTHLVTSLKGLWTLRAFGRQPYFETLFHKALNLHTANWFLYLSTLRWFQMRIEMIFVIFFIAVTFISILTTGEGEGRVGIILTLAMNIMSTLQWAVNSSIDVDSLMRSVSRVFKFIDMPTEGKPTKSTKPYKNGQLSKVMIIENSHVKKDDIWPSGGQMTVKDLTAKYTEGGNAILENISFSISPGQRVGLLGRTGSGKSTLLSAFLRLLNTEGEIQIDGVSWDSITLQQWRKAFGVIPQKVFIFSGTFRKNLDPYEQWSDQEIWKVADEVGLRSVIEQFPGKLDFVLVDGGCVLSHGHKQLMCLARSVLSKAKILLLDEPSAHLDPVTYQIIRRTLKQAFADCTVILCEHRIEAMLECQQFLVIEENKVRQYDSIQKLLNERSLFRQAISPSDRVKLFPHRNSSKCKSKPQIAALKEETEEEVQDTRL
Assay: YFP-halide influx assay for the CFTR-ΔF508 mutation (384 well, FDSS/μCell)
Type: cell-based
Conditions: CFBE41o- cells, CFTR-ΔF508, 1×D-PBS, fluorescence after 36 seconds
Catalogue of pEC50 readings, one per entry.
Reminder that pEC50 means the negative base-10 logarithm of the concentration expressed in mol/L.

The cases that follow already have their pEC50 on record.
CC(C)(C)C(O)C(=O)Nc1sc(S(=O)(=O)c2ccc(F)cc2)cc1C(N)=O (stereo not drawn); 6.98
NC(=O)c1cc(S(=O)(=O)c2ccc(F)cc2)sc1NC(=O)c1ccn[nH]1; 7.54

Now take the following molecule into account.
Recorded pEC50 (molecule CC(C)c1nn(C)cc1S(=O)(=O)c1cc(C(N)=O)c(NC(=O)C(C)(C)O)s1 ): 7.16
